These entries and their values trace back to patent US20260062463A1.

Molecular target: T1, AAV5 (adeno-associated virus 5, Assembled 60-mer capsid of VP1/VP2/VP3 (nested products of one cap gene), amine-coupled to a CM5 chip; the letters give one VP1 subunit only.)
T1 construct: also called adeno-associated virus serotype 5
Test: SPR, AAV amine-coupled to CM5 chip
parameter measured: Kd
Write the quantity with the unit trailing the number.

Reported Kd for A4-C5 (bispecific antibody) VQLQESGGGLVQPGGSLRLSCAASGSNFRINTMGWYRQAPGKQRELVATVTRGGSTNYADSVKGRFTISRDNPKNTVYLQMNSLRPEDTAVYYCHVDEVRESSWTTSNLWGQGTQVTVSSGGGGSGGGGSGGGGSVQLQESGGGLVQPGGSLRLSCAASGSNFSINTMGWYRQAPGKQRELVATVTRGGDTNYADSVKGRFTISRDNAKNTVYLQMNSLRPEDTAVYYCHVDEIRESSWTTSNLWGQGTQVTVSSGGGGSGGGGSGGGGSVQLQESGGGLVQPGGSLRLSCAASGSNFRINTMGWYRQAPGKQRELVATVTRGGSTNYADSVKGRFTISRDNPKNTVYLQMNSLRPEDTAVYYCHVDEVRESSWTTSNLWGQGTQVTVSS : what is it?
7.86 nM
